assay_system: Androgen receptor (Homo sapiens) (UniProt P10275)
Sequence (whole entry): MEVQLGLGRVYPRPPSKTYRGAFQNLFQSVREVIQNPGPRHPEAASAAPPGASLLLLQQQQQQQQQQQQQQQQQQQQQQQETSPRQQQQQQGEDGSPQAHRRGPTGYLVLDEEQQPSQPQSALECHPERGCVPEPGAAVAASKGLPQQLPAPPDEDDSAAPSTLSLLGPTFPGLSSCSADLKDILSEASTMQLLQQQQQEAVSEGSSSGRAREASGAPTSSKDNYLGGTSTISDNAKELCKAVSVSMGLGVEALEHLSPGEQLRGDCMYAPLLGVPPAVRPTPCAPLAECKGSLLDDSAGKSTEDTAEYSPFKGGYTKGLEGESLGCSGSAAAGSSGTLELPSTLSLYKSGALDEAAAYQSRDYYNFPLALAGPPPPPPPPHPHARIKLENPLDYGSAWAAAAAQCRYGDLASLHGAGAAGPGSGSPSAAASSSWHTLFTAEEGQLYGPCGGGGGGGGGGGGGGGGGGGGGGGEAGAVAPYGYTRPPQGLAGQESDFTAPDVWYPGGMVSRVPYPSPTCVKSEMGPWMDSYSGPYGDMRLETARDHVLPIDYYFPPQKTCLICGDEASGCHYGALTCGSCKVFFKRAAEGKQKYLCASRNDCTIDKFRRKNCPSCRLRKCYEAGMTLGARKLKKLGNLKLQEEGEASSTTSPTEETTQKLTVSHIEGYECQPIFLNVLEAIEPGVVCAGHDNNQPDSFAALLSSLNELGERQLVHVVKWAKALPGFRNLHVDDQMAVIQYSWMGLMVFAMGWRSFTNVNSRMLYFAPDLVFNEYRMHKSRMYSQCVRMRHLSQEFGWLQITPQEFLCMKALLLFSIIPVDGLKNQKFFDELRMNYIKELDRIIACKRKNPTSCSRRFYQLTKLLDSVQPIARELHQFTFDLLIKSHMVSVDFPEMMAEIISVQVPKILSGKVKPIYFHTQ
assay_protocol: Antagonist activity at androgen receptor in human LNCAP cells transfected with p6.1-luciferase assessed as inhibition of R1881-induced transcriptional activity at 7 uM pretreated 1 hr prior to R1881 addition measured after 48 hrs by luciferase reporter gene assay
Assay type: functional, cell-based
Activity calls are given as the source filed them. No cut-off for these calls is given here.
Respond using exactly one of the listed classes: True = active, False = inactive

Consider the worked cases shown below.
INPUT: Lab log entry: `CCCCCCCCCCCCC(=O)/C=C/CCCOC[C@@H]1COC(C)(C)O1` — outcome as called in the assay?
OUTPUT: True

INPUT: # outcome recorded in this test, key = `CCCCCCCCCCCCC(=O)/C=C/CCCOC[C@@H](O)CCl`
OUTPUT: True

INPUT: Please indicate how the test categorized `CCCCCCCCCCCCC(=O)/C=C/CCCOC[C@@H](O)COCCOCCOCCO` .
OUTPUT: True

INPUT: Lab log entry: `CC(=O)/C=C/CCCOC[C@H](O)CO` — outcome as called in the assay?
OUTPUT: False

INPUT: Kindly provide the recorded test outcome for the following compound: `CCCCCCCCCCCCC(=O)CCCCCOC[C@H](O)CO`
OUTPUT: True

INPUT: So what was the verdict on `C#CCOC[C@@H](O)COCCC/C=C/C(=O)CCCCCCCCCCCC` in this test?
OUTPUT: True

More entries:
INPUT: Record lookup: outcome of this test for `CCCCCCCCCCC/C=C/C(=O)CCCCOC[C@H](O)CO` ?
OUTPUT: True

INPUT: Per the records of this test, what outcome belongs to `CCCCCCCCCCCCC(=O)/C=C/CCCCC[C@H](O)CO` ?
OUTPUT: True
